Parameter pKi: see the listing below.
# targetUnderTest: human Pim-1 (Homo sapiens (Human))
# Sequence (P11309 whole entry): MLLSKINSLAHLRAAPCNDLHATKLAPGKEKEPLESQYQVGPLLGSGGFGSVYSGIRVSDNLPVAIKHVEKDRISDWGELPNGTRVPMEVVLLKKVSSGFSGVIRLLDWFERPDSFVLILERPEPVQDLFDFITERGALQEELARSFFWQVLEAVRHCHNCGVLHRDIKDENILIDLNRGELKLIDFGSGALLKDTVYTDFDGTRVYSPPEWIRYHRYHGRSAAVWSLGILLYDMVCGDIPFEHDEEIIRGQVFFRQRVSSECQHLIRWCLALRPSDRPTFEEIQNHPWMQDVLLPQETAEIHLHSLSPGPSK
# experimentalDetails: biochemical
# Type: biochemical
# runConditions: Ki converted from IC50; purified human Pim-1, Pim2tide substrate, ADP-Glo; read-out: hPim1 Ki
pKi: −log10 of the molar value.
quantityKind: pKi

• N#CC[C@H]1CO[C@@H](CCN2CCNC(=O)c3oc4ccc(C(F)(F)F)cc4c32)CO1 (racemic) [Example 142] = 8.36
• O=C1NCCN(CCC2CCC(CO)CCO2)c2c1oc1ccc(C(F)(F)F)cc21 (centres unmarked) [Example 9] = 9.32
• O=C1NCCN(CCC2CCC(C3(O)CC3)CC2)c2c1oc1ccc(C(F)(F)F)cc21 (centres unmarked) [Example 110] = 9.88
• O=C1NCCN(CC(F)(F)[C@H]2CC[C@H](O)CC2)c2c1oc1ccc(C(F)(F)F)cc21 [Example 106] = 10.39
• O=C1NCCN(CC(F)(F)C2CC(OC(F)F)CCO2)c2c1oc1ccc(C(F)(F)F)cc21 (centres unmarked) [Example 54] = 9.88
• O=C1NCCN(CC(F)(F)C2CC(O)(CO)CCO2)c2c1oc1ccc(C(F)(F)F)cc21 (centres unmarked) [Example 13] = 10.68
• O=C(OC[C@@H]1CO[C@H](CCN2CCNC(=O)c3oc4ccc(C(F)(F)F)cc4c32)CO1)c1ccccc1 [Example 69] = 7.73
• O=C1NC2(CC2)CN(CC[C@H]2CO[C@@H](CO)CO2)c2c1oc1ccc(C(F)(F)F)cc21 [Example 154] = 9.52

This collection of values is drawn from patent US11643417B2.
